Assignment: determine reported solubility (mole fraction) for the given compounds.
- test_settings: in tetrachloromethane, 303.15 K
No unit in the answer, please; the number alone is enough.

Consider O=[N+]([O-])c1ccc(Cl)c(Cl)c1 . Its measured solubility (mole fraction) is 0.792

Consider O=[N+]([O-])c1cccc(Cl)c1Cl . Its measured solubility (mole fraction) is 0.38

====

- test_settings: in isopropanol, 285.65 K
assay_endpoint: solubility (mole fraction)

Consider O=[N+]([O-])c1cccc(Cl)c1Cl . Its measured solubility (mole fraction) is 0.0169

Consider O=[N+]([O-])c1ccc(Cl)c(Cl)c1 . Its measured solubility (mole fraction) is 0.0272

Data origin, for the record: BigSolDB 2.1
